# System: P. falciparum 3D7 growth, pLDH absorbance
# EXPERIMENT SUMMARY: blood-stage malaria parasite growth potency – strain 3D7, dose response (AID 2305)
ENDPOINT LABEL: IC50 (nM)

In [3]: df
Out[3]:
                                   compound  value_reported
0  COc1ccc2ncc(F)c(CCN3C[C@H](CNCc4cc(C#N)c5c(c4)OCCO5)[C@H](O)C3)c2n1             580
1  Cc1noc(-c2ccccc2)c1NC(=O)NC1CCN(CCCCCNC(=O)/C=C/c2ccc(Cl)c(Cl)c2)CC1             990
2  O=C(NCCCCCN1CCC(c2c[nH]c3ccccc23)CC1)Nc1cccc(Cl)c1            1020
3  Cc1cccc2c(C3CCN(CC4CCC(NC(=O)/C=C/c5ccc(Cl)c(Cl)c5)CC4)CC3)c[nH]c12 (centres undefined)            1030
4  CC(C)CNC(=O)CN1C(=O)C(c2ccccc2)(c2ccccc2)N=C1N             820
5  O=C(NCC1CCN(Cc2ccc3c(c2)OCCO3)C1)c1cc(-c2cccc(C(F)(F)F)c2)cs1 (centres undefined)             980
6  Cc1cc(NCCCCCCNc2cc(C)nc3c(C)cccc23)c2cccc(C)c2n1             410
7  O=C(/C=C/c1ccc(Cl)c(Cl)c1)NC1CCN(Cc2cccc(O)c2)CC1             880
8  Cc1ccc(Nc2nccc(NCC(O)c3cccc(C(F)(F)F)c3)n2)cc1 (centres undefined)             680
